Entry source: patent US20230348603A1

# targetOrSystem: T1, Human VSIG4-S-Fc (human)
# T1 construct: short isoform ECD fused to human Fc1; also called hVSIG4-S
# T1 sequence (chain, as listed by the source limits assumed): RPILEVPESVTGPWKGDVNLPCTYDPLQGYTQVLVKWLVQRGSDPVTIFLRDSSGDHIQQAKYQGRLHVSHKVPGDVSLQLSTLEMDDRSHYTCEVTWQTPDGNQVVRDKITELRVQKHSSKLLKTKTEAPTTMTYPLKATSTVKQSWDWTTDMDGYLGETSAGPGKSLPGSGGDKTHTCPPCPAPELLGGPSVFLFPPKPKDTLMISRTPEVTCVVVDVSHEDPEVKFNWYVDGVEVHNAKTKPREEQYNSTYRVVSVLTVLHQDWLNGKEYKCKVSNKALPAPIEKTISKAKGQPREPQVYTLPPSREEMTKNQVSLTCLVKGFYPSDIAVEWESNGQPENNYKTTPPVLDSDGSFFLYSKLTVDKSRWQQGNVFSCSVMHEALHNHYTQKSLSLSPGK
# experiment: ELISA, IgG 50 nM on coated antigen;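 also: Mouse-human chimeric IgG4 antibodies incubated 1 h on plate-coated VSIG4 proteins, bound IgG detected with HRP-labelled anti-human IgG, irrelevant antibody and protein as specificity controls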
Property: ELISA OD450; scope: individual binders
observationType: ELISA OD450 (OD450)

binder	observationType	readoutUnits	measuredValue
15A06 mouse/human chimeric IgG4 (S228P) kappa (antibody, V domains shown) VH: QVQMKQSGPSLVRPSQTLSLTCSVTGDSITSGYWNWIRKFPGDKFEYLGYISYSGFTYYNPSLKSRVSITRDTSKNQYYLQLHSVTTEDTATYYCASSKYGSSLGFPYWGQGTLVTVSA VL: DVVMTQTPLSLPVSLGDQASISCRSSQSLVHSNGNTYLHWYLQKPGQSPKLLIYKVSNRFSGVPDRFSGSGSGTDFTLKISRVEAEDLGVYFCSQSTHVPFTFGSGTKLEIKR	ELISA OD450	OD450	0.24
15C04 mouse/human chimeric IgG4 (S228P) kappa (antibody, V domains shown) VH: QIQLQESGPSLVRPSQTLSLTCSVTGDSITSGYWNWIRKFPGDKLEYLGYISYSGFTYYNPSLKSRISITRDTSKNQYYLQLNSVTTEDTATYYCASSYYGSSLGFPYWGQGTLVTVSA VL: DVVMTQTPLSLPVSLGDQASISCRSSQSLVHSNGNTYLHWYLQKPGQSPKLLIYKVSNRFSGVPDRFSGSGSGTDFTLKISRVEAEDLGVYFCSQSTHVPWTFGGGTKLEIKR	ELISA OD450	OD450	3.28
12A12 mouse/human chimeric IgG4 (S228P) kappa (antibody, V domains shown) VH: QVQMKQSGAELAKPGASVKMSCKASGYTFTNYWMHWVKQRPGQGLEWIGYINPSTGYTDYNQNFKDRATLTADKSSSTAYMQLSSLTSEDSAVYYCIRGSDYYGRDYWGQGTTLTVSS VL: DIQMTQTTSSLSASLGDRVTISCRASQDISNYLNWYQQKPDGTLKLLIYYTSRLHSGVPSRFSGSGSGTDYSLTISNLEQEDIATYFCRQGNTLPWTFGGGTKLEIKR	ELISA OD450	OD450	4.18
13H11 mouse/human chimeric IgG4 (S228P) kappa (antibody, V domains shown) VH: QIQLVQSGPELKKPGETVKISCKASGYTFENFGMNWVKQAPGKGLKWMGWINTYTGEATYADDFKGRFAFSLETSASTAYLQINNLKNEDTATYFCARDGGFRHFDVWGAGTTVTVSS VL: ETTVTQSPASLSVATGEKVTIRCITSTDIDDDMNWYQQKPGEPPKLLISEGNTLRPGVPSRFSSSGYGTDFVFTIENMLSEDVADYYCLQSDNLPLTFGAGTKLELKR	ELISA OD450	OD450	0.44
16E10 mouse/human chimeric IgG4 (S228P) kappa (antibody, V domains shown) VH: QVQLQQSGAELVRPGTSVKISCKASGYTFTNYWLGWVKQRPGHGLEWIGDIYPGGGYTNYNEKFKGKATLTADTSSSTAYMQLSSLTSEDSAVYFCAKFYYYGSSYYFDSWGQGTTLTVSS VL: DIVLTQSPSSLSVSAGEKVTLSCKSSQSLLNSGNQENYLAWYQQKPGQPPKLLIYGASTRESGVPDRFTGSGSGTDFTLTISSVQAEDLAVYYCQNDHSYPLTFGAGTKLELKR	ELISA OD450	OD450	2.04
16E03 mouse/human chimeric IgG4 (S228P) kappa (antibody, V domains shown) VH: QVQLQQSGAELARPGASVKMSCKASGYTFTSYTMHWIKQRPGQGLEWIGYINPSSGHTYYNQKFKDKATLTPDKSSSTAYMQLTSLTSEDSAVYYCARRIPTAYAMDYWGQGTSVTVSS VL: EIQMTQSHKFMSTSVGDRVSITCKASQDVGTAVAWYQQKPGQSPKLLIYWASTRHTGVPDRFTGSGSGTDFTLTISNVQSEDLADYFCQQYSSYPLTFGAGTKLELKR	ELISA OD450	OD450	4.13
